Biological target: human CB1 receptor (Homo sapiens)
Construct: expressed in transfected cells; host or cells: SK-N-MC cells, stably transfected with pcDNA3 CB-1 (human); semi-purified membrane pellet
Assay: biochemical
Type: binding
pIC50: −log10 of the molar value.
Label scheme for pIC50: lower than 7 is false, 7 and above is true.

Answered cases to consult:
| Compound | Assigned label |
| --- | --- |
| O=C(NC1C2CC3CC(C2)CC1C3)c1nn(C2CCCCC2)c2c1CCCC2 (centres unmarked) [compound 45] | true |
| O=C(NN1CC2CCCC2C1)c1nn(-c2ccc(Cl)cc2Cl)c2c1CCC/C2=C\c1ccco1 (centres unmarked) [compound 376] | true |
| O=C(NN1CCCCC1)c1nn(-c2ccc(Cl)cc2Cl)c2c1CCCC2 [compound 287] | false |
| C[C@@H](NC(=O)c1nn(Cc2ccccc2)c2c1CCCC2)c1ccccc1 [compound 199] | true |
| C[C@@H](NC(=O)c1nn(-c2ccc(Cl)cc2Cl)c2c1CCCC2=Cc1ccc(Br)o1)c1ccccc1 [compound 397] | true |
| CCOC(=O)C1CCCc2c1c(C(=O)NC1C3CC4CC(C3)CC1C4)nn2Cc1ccccc1 (centres unmarked) [compound 158] | true |
| O=C(NC1C2CC3CC(C2)CC1C3)c1nn(C2CCCCC2)c2c1CC(C(=O)OCc1ccccc1)CC2 (centres unmarked) [compound 79] | true |

Exercise: Does the compound CCOC(=O)C1=C(NC(=O)c2nn(C3CCCCC3)c3c2CCCC3)CCC1 [compound 57] have recorded pIC50 that is 7 or more?
Solution: false

---

For each record, write down the corresponding pIC50.
Biological target: human CB1 receptor (Homo sapiens, UniProt P21554)
Construct: expressed in transfected cells; host or cells: SK-N-MC cells, stably transfected with pcDNA3 CB-1 (human); semi-purified membrane pellet
Sequence (P21554 whole entry): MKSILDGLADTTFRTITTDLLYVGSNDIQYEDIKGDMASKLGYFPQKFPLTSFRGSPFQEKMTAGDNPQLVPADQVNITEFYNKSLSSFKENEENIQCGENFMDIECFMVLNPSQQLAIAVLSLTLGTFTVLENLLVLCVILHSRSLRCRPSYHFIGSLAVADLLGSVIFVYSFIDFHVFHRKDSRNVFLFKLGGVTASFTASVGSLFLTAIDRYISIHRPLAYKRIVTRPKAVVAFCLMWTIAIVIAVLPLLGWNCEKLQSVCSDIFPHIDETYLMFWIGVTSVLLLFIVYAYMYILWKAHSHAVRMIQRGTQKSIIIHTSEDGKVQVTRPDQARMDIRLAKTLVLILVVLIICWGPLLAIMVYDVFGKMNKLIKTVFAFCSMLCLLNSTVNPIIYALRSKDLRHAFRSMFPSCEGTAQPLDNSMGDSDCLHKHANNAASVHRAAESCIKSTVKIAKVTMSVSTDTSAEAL
Assay: biochemical
Assay type: binding
One number for each entry, as −log10 of the molar value.

For each entry beneath this line, provide reported pIC50.
1. CCOC(=O)C1CCc2nn(C3CCCCC3)c(C(=O)NC(C)C34CC5CC(CC(C5)C3)C4)c2C1 (stereo not shown)
2. CCOC(=O)[C@H]1C2CCC(C2)[C@H]1NC(=O)c1nn(C2CCCCC2)c2c1CCCC2OC (stereo partly shown)
3. CCOC(=O)[C@H]1CCc2c(c(C(=O)NC3C4CC5CC(C4)CC3C5)nn2Cc2ccccc2)C1 (stereo partly shown)
4. CS(=O)(=O)NC1CCc2c(c(C(=O)NC3C4CC5CC(C4)CC3C5)nn2C2CCCCC2)C1 (stereo not shown)

Solution:
1: 5.79; 2: 4.93; 3: 6.47; 4: 4.77

---

Target: human CB2 receptor (Homo sapiens)
Sequence (P34972 whole entry): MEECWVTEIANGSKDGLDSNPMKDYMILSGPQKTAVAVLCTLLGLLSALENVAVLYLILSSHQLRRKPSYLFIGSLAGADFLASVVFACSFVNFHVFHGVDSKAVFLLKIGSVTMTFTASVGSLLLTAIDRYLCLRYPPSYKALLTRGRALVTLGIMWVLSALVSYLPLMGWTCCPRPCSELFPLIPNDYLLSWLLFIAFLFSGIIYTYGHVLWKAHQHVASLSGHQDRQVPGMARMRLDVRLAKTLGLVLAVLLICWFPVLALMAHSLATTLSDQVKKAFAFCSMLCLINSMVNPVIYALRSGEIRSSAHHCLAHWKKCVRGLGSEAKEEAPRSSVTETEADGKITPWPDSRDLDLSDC
Assay: Binding assay, cannabinoid CB2 receptor ([3H]-CP-55,940 displacement)
Conditions: Cannabinoid CB2 Receptor Binding IC50, human CB2 receptor, SK-N-MC cell membranes, radioligand CP-55,940 0.2 nM
Reported metric: IC50 (nM)
Give bare numbers, in nM.

| Molecule | Reading unit | Val |
| --- | --- | --- |
| C[C@@H](NC(=O)C=Cc1nn(Cc2ccccc2)c2c1CCCC2)c1ccccc1 | nM | 1800 |
| O=C(NN1CCCCC1)c1nn(-c2ccc(Cl)cc2Cl)c2c1CCCC2 | nM | 2100 |
| O=C(CCc1nn(C2CCCCC2)c2c1CCCC2)N[C@@H]1C2CCC(C2)[C@@H]1CO (stereo partly drawn) | nM | 4900 |
| O=C(NC1CC2CCC1C2)c1nn(-c2ccc(F)cc2)c2c1CCCC2 (stereo not drawn) | nM | 35.2 |
| CCOC(=O)C1CCc2c(c(C(=O)NN3CCCCC3)nn2C2CCCCC2)C1 (stereo not drawn) | nM | 1300 |

Dear reader, for each entry below, please note its IC50.
1. COc1ccc(C(O)CNC(=O)c2nn(C3CCCCC3)c3c2CCCC3)cc1 (stereo not drawn)
2. O=C(NC1CCCCCCC1)c1nn(-c2ccc(F)cc2)c2c1CCCC2
3. CC12CCC(C1)C(C)(C)[C@H]2NC(=O)c1nn(C2CCCCC2)c2c1CCCC2 (stereo partly drawn)
4. CC12CCC(C1)C(C)(C)C2NC(=O)c1nn(-c2ccccc2)c2c1CCCC2 (stereo not drawn)

Solution:
500
53.8
1.6
13.5

Below are some molecules; for each one, tell me its IC50.
1. COC(=O)C(Cc1ccc(O)c(O)c1)NC(=O)c1nn(Cc2ccccc2)c2c1CCCC2 (stereo not drawn)
2. CCOC(=O)C1CC=CCC1NC(=O)c1nn(C2CCCCC2)c2c1CCCC2OC (stereo not drawn)
3. COC(=O)C(Cc1cccc(OCc2ccccc2)c1)NC(=O)c1nn(-c2ccc(OC)cc2)c2c1CCCC2 (stereo not drawn)
4. CC(NC(=O)c1nn(Cc2ccccc2)c2c1CCCC2c1ccccc1)c1ccccc1 (stereo not drawn)

Solution:
1. 200
2. 875
3. 428
4. 300

Batch lookup, IC50 per entry.
1. CCOC(=O)C1C2CCC(C2)C1NC(=O)c1nn(Cc2ccc(C)cc2)c2c1CCCC2 (stereo not drawn)
2. CCOC(=O)C1CCc2c(C(=O)NC3C4CC5CC(C4)CC3C5)nn(Cc3ccccc3)c2C1 (stereo not drawn)
3. O=C(NCC12CC3CC(CC(C3)C1)C2)c1nn(-c2ccc(F)cc2)c2c1CCCC2c1ccccc1 (stereo not drawn)
4. CCOC(=O)[C@@H]1CCCC[C@H]1NC(=O)c1nn(Cc2ccccc2)c2c1CCCC2
5. CCOC(=O)C1CCc2c(c(C(=O)NC(C)C34CC5CC(CC(C5)C3)C4)nn2-c2ccccc2)C1 (stereo not drawn)

Solution:
593
1
1100
70
990

# batch: return IC50 for each of the 5 molecules below
1. CCOC(=O)[C@H]1C2CCC(C2)[C@H]1NC(=O)c1nn(-c2ccc(F)cc2)c2c1CCCC2CC (stereo partly drawn)
2. CC(NC(=O)c1nn(Cc2ccccc2)c2c1CCCC2)C12CC3CC(CC(C3)C1)C2 (stereo not drawn)
3. O=C(NC1C2CCC(C2)C1CO)c1nn(C2CCCCC2)c2c1CCCC2 (stereo not drawn)
4. CC1CCCCC1NC(=O)c1nn(C2CCCCC2)c2c1CCCC2 (stereo not drawn)
5. O=C(Nc1nn(C2CCCCC2)c2c1CCCC2)C1CCCCC1

Solution:
190
6
215
2
1700

---

Kindly supply the reported log10 IC50 values for the records listed here.
Molecular target: human CB1 receptor (Homo sapiens, UniProt P21554)
Construct: expressed in transfected cells; host or cells: SK-N-MC cells, stably transfected with pcDNA3 CB-1 (human); semi-purified membrane pellet
Assay: biochemical
Assay type: binding
Form field - Quantity: IC50; Unit: nM; Scale: log10

Example compounds with recorded log10 IC50:
| Compound | Reported metric | Val |
| --- | --- | --- |
| CC1CCCc2c(C(=O)NC3C4(C)CCC(C4)C3(C)C)nn(-c3ccc(F)cc3)c21 (centres unmarked) | log10 IC50 | 2.03 |
| CC1CCCC(C)N1NC(=O)c1nn(-c2ccc(Cl)cc2Cl)c2c1CCC/C2=C\c1ccsc1 (centres unmarked) | log10 IC50 | 1.60 |
| O=C(NCC(=O)C1CCCCC1)c1nn(C2CCCCC2)c2c1CCCC2 | log10 IC50 | 3.57 |
| CCOC(=O)C1CCc2c(c(C(=O)N[C@H](C)C3CCCCC3)nn2Cc2ccccc2)C1 (some centres unmarked) | log10 IC50 | 2.94 |
| C[C@@H](NC(=O)c1nn(-c2ccc(Cl)cc2Cl)c2c1CCCC2=Cc1cccs1)C1CCCCC1 | log10 IC50 | 1.30 |
| O=C(NN1CC2CCCC2C1)c1nn(-c2ccc(Cl)cc2Cl)c2c1CCCC2=Cc1ccc(Br)cc1 (centres unmarked) | log10 IC50 | 1.51 |

I need log10 IC50 for every entry listed below, if you could help.
1. O=C(NC(c1ccccc1)C1CCCCC1)c1nn(C2CCCCC2)c2c1CCCC2 (centres unmarked)
2. O=C(NC1C2CC3CC(C2)CC1C3)c1nn(C2CCCCC2)c2c1CCCC2Cl (centres unmarked)

Solution:
[3.48, 2.45]

---

Target: human CB2 receptor (Homo sapiens)
Experiment: Functional cell-based assay, CB2 receptor mediated change in CRE β-gal expression (agonist / inverse agonist)
Conditions: SK-N-MC cells, forskolin, agonist, read-out: CB2 Receptor Functional Agonist EC50
Reported metric: EC50 (nM)
Give bare numbers, in nM.

| Molecule | Val |
| --- | --- |
| O=C(NC1C2CC3CC(C2)CC1C3)c1nn(CC2CCCCC2)c2c1CCCC2 (stereo not shown) | 37 |
| CC(=O)OC1CCc2c(c(C(=O)NC3C4(C)CCC(C4)C3(C)C)nn2C2CCCCC2)C1 (stereo not shown) | 25 |
| O=C(NN1CCCCCC1)c1nn(-c2ccc(F)cc2)c2c1CCCC2 | 35 |
| CC12CCC(C1)C(C)(C)[C@H]2NC(=O)c1nn(C2CCCCC2)c2c1CCCC2 (stereo partly shown) | 10 |
| O=C(NCC12CC3CC(CC(C3)C1)C2)c1nn(C2CCCCC2)c2c1CCCC2 | 47 |

Please report EC50 for every entry that follows.
1. CC12CCC(C1)C(C)(C)C2NC(=O)c1nn(-c2cccc(F)c2)c2c1CCCC2 (stereo not shown)
2. CC(NC(=O)c1nn(C2CCCCC2)c2c1CCCC2)C1CCCCC1 (stereo not shown)

Solution:
1. 2.7
2. 100

Each of the following entries comes with a recorded value; kindly state EC50 for each.
1. O=C(NC1C2CCC(C2)C1CO)c1nn(C2CCCCC2)c2c1CCCC2 (stereo not shown)
2. CC12CCC(C1)C(C)(C)C2NC(=O)c1nn(-c2ccc(F)cc2)c2c1CCCC2 (stereo not shown)
3. CCOC(=O)C1C2CCC(C2)C1NC(=O)c1nn(C2CCCCC2)c2c1CCCC2 (stereo not shown)

Solution:
[31, 1.9, 330]

Take each entry in turn and give its EC50.
1. O=C(NC1C2CC3CC(C2)CC1C3)c1nn(C2CCCCC2)c2c1CC(NC(=O)C(F)(F)F)CC2 (stereo not shown)
2. CCOC(=O)[C@H]1C2CCC(C2)[C@H]1NC(=O)c1nn(-c2ccc(F)cc2)c2c1CCCC2CCc1ccccc1 (stereo partly shown)

Solution:
1: 250; 2: 9

Would you mind giving EC50 for every molecule in the list below?
1. O=C(NC1C2CC3CC(C2)CC1C3)c1nn(C2CCCCC2)c2c1CCCC2Cl (stereo not shown)
2. CC(NC(=O)c1nn(CC2CCCCC2)c2c1CCCC2)C12CC3CC(CC(C3)C1)C2 (stereo not shown)
3. C[C@@H](NC(=O)c1nn(C2CCCCC2)c2c1CCCC2)C12CC3CC(CC(C3)C1)C2
4. CCOC(=O)[C@@H]1CCCC[C@@H]1NC(=O)c1nn(C2CCCCC2)c2c1CCCC2
5. CC(NC(=O)c1nn(C2CCCCC2)c2c1CCCC2)C12CC3CC(CC(C3)C1)C2 (stereo not shown)
6. CC12CCC(C1)C(C)(C)C2NC(=O)c1nn(-c2ccccc2)c2c1CCCC2 (stereo not shown)
7. CCOC(=O)[C@@H]1C2CCC(C2)[C@@H]1NC(=O)c1nn(C2CCCCC2)c2c1CCCC2 (stereo partly shown)
8. C[C@@H](NC(=O)c1nn(C2CCCCC2)c2c1CCCC2)C1CCCCC1

Solution:
0.57
7.5
3.7
5
11
15
0.78
5.5
